Where do the numbers come from? From patent US20050164925A1.

- Measured target: T1, human GLP-1 receptor (human), P43220
- T1 chain: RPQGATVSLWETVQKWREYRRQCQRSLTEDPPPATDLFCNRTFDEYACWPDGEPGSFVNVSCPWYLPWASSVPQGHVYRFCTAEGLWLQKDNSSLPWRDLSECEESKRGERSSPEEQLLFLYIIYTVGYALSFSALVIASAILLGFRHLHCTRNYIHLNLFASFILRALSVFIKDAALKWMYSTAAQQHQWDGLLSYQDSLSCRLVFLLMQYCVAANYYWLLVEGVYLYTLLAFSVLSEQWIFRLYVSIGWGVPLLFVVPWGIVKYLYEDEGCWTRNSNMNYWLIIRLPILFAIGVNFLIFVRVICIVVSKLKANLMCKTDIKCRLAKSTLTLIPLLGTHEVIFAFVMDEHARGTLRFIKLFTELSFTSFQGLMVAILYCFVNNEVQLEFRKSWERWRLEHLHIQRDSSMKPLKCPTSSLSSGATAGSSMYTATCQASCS
- Test protocol: cell-based or functional assay
Where no end group is shown, it is not given here.
Let's look at some binders and their measured EC50 Relative to Val^8-GLP-1(7-37)OH (relative to Val^8-GLP-1(7-37)OH).
API doc: respond with a numeric literal and nothing else, no unit.

Q: If you can, please state the reported EC50 Relative to Val^8-GLP-1(7-37)OH (relative to Val^8-GLP-1(7-37)OH) value of HVEGTFTSDVSSFLEEQAAKEFIAWLVKGRG-OH [Val^8-Phe^19-Glu^22-GLP-1(7-37)OH] .
Ans: 1.5

Q: Look at this binder and give its reported EC50 Relative to Val^8-GLP-1(7-37)OH (relative to Val^8-GLP-1(7-37)OH). HVEGTFTSDVSSWLEEQAAKEFIAWLVKGRG-OH [Val^8-Trp^19-Glu^22-GLP-1(7-37)OH]
Ans: 3.2

Q: Fill in: EC50 Relative to Val^8-GLP-1(7-37)OH (relative to Val^8-GLP-1(7-37)OH) of HVEGTFTSDVSSYFEEQAAKEFIAWLVKGRG-OH [Val^8-Phe^20-Glu^22-GLP-1(7-37)OH] is ___
Ans: 2.7
